Cited source: patent US4200575A

Kindly state minimal inhibitory concentration (M.I.C.) for each of the entries shown.
- Tested on: E. coli 0-111
- PROTOCOL: Minimal inhibitory concentration (M.I.C.), agar dilution method
- Type: cell-based, Escherichia coli
- PROTOCOL_CONDITIONS: TSA, inoculum 10^7 /ml

Reference set (2 entries):
COMPOUND	TARGET_SYSTEM	TEST_VALUE
CNC(=O)O/N=C(\C(=O)NC1C(=O)N2C(C(=O)O)=C(CSc3cnn[nH]3)CSC12)c1csc(=N)[nH]1 (stereo not drawn)	E. coli 0-111	≤ 0.2
CNC(=O)O/N=C(\C(=O)NC1C(=O)N2C(C(=O)O)=C(CSc3nnnn3CCN(C)C)CSC12)c1csc(=N)[nH]1 (stereo not drawn)	E. coli 0-111	≤ 0.2

Consider the additional compound presented here.
Need minimal inhibitory concentration (M.I.C.) of CNC(=O)O/N=C(\C(=O)NC1C(=O)N2C(C(=O)O)=C(CSc3nnc(C)o3)CSC12)c1csc(=N)[nH]1 (stereo not drawn) , thanks.
≤ 0.2

---

Kindly state minimal inhibitory concentration (M.I.C.) for each of the entries shown.
- System: P. rettgeri TN 338
- PROTOCOL: Minimal inhibitory concentration (M.I.C.), agar dilution method
- Type: cell-based, Proteus rettgeri
- PROTOCOL_CONDITIONS: TSA, inoculum 10^7 /ml

Reference set (2 entries):
MOLECULE	TEST_VALUE
CCCCNC(=O)O/N=C(\C(=O)NC1C(=O)N2C(C(=O)O)=C(COC(C)=O)CSC12)c1csc(=N)[nH]1 (stereo not drawn) [Example II - 20]	≤ 0.012
CNC(=O)O/N=C(\C(=O)NC1C(=O)N2C(C(=O)O)=C(COC(N)=O)CSC12)c1csc(=N)[nH]1 (stereo not drawn) [Example II - 3]	≤ 0.012

Consider the additional molecule presented here.
Need minimal inhibitory concentration (M.I.C.) of CNC(=O)O/N=C(\C(=O)NC1C(=O)N2C(C(=O)O)=C(CSc3nnc(CC(N)=O)s3)CSC12)c1csc(=N)[nH]1 (stereo not drawn) [Example IV - 6] , thanks.
≤ 0.2
